We begin with a simple list: items and their reported MCHC.
Species: Rattus norvegicus
assay-name: Open TG-GATES - Regimen: Daily Repeat
Format: toxicity, organism-based, Sprague-Dawley
Set-up: regimen Daily Repeat, gender Male, age 6 weeks
condition: in vivo, po, 0 mg/kg, […], tissue Blood, route gavage, dose level Control, time 28 day

molecule	MCHC [%]
CN(C)[C@@H]1C(O)=C(C(N)=O)C(=O)[C@@]2(O)C(O)=C3C(=O)c4c(O)cccc4[C@@](C)(O)[C@H]3C[C@@H]12 [TETRACYCLINE]	33.6
Cc1cccc(Nc2ccccc2C(=O)O)c1C [MEFENAMIC ACID]	35
O=C(O)Cc1ccccc1Nc1c(Cl)cccc1Cl [DICLOFENAC]	36.1
C#C[C@]1(O)CC[C@H]2[C@@H]3CCC4=Cc5oncc5C[C@]4(C)[C@H]3CC[C@@]21C [DANAZOL]	34.1
CCOC(=O)[C@H](CCc1ccccc1)N[C@@H](C)C(=O)N1CCC[C@H]1C(=O)O	33
CN1C(C(=O)Nc2ccccn2)=C(O)c2sc(Cl)cc2S1(=O)=O [LORNOXICAM]	35
CC(CN1c2ccccc2Sc2ccccc21)N(C)C (stereo not given) [PROMETHAZINE]	34.6
CC(=O)Nc1nnc(S(N)(=O)=O)s1 [ACETAZOLAMIDE]	34.3
C1CCC(C(CC2CCCCN2)C2CCCCC2)CC1 (stereo not given) [PERHEXILINE]	35.2
Clc1c(Cl)c(Cl)c(Cl)c(Cl)c1Cl [PERCHLOROBENZENE]	33.1
